Origin of measurements: patent US20240239794A1

Below is a list of entries, each paired with its recorded IC50 value.
tested on: IL-2 secretion by human effector memory T cells (TEM); assay: Effector memory T cells IL-2 release assay; format: cell-based; settings: T-cell; human CD4+ TEM cells, CD3/CD28 bead stimulation, 24 h; binned A to G; read-out: PKC-theta IL2 pIC50 (binned) (converted)

Record excerpt, results attached:
>  <Compound>
CC1(C)C(=O)Nc2nccc(-c3nn(C[C@@]4(C)COCCN4)c4ccccc34)c21 (single isomer, unassigned) [Example 31]

>  <Observed Result>
31.6 to 100 nM

$$$$
>  <Compound>
CC1(C)C(=O)Nc2nccc(-c3nn(C4(CC#N)CCC4)c4ccccc34)c21 [Example 22]

>  <Observed Result>
316 to 1000 nM

$$$$

Below: the item to evaluate.
## Task State the recorded IC50 for this entry: C[C@@]1(O)C(=O)Nc2nccc(-c3nn(C4CCNCC4)c4ccccc34)c21 (single isomer, unassigned) [Example 27]
## Result > 1000 nM

* * *

tested on: IL-2 secretion by human effector memory T cells (TEM); assay: Effector memory T cells IL-2 release assay; type: cell-based; conditions: T-cell; human CD4+ TEM cells, CD3/CD28 bead stimulation, 24 h; binned A to G; read-out: PKC-theta IL2 pIC50 (binned) (converted)
Outcome Measure: IC50

Record excerpt, results attached:
>  <Compound>
C[C@@]1(O)C(=O)Nc2nccc(-c3nn(C4(CC#N)CCC4)c4ncccc34)c21 (single isomer, unassigned)

>  <Outcome Measure>
IC50

>  <Observed Result>
100 to 316 nM

$$$$
>  <Compound>
CC1(C)C(=O)Nc2nccc(-c3nn([C@H]4CCNC4)c4cc(C(F)(F)F)ccc34)c21

>  <Outcome Measure>
IC50

>  <Observed Result>
316 to 1000 nM

$$$$
>  <Compound>
CC[C@@]1(O)C(=O)Nc2nccc(-c3nn([C@H]4CCNC[C@H]4F)c4ccccc34)c21 (single isomer, unassigned)

>  <Outcome Measure>
IC50

>  <Observed Result>
31.6 to 100 nM

$$$$
>  <Compound>
CC1(C)C(=O)Nc2nccc(-c3nn([C@@H]4CCNC4)c4ccccc34)c21

>  <Outcome Measure>
IC50

>  <Observed Result>
31.6 to 100 nM

$$$$

## Task State the recorded IC50 for this entry: CC1(C)C(=O)Nc2nccc(-c3nn(CC4CCNCC4)c4ccccc34)c21
## Result 31.6 to 100 nM

## Task State the recorded IC50 for this entry: CO[C@@]1(C)C(=O)Nc2nccc(-c3nn(C4(CC#N)CCC4)c4ccccc34)c21 (single isomer, unassigned)
## Result 10 to 31.6 nM

* * *

molecular target: Recombinant human PKC-theta (His-tagged 362-706) (Homo sapiens (Human), UniProt Q04759); experiment: PKC-theta inhibition assay (HTRF KinEASE kit); assay type: biochemical; conditions: ATP 6.5 μM, binned A to H, read-out: PKC-theta HTRF pIC50 (binned) (converted)
Sequence (Q04759 362-706): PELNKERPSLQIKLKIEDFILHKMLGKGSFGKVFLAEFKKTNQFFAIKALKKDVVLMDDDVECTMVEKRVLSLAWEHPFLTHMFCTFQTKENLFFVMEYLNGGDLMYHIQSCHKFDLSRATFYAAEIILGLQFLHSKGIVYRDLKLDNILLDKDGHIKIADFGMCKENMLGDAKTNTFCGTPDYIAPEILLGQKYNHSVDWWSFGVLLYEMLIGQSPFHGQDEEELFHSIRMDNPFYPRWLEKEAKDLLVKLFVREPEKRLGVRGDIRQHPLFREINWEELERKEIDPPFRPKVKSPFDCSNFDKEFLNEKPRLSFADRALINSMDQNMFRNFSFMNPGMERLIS
Counter-ions that a name gives are not always drawn.
Below is a list of entries, each paired with its recorded IC50 value.

Record excerpt, results attached:
>  <Compound>
CC[C@]1(C)C(=O)Nc2nccc(-c3nn([C@@H]4CCNC[C@@H]4F)c4ccc(F)cc34)c21 (single isomer, unassigned)

>  <Assayed System>
Recombinant human PKC-theta (His-tagged 362-706) (Homo sapiens (Human), UniProt Q04759)

>  <IC50>
10 to 31.6 nM

$$$$
>  <Compound>
C[C@@]1(O)C(=O)Nc2nccc(-c3nn(C4(CC#N)CCC4)c4ccccc34)c21 (single isomer, unassigned)

>  <Assayed System>
Recombinant human PKC-theta (His-tagged 362-706) (Homo sapiens (Human), UniProt Q04759)

>  <IC50>
≤ 1 nM

$$$$
>  <Compound>
CC1(C)C(=O)Nc2nccc(-c3nn(C4(CC#N)CCC4)c4ccccc34)c21

>  <Assayed System>
Recombinant human PKC-theta (His-tagged 362-706) (Homo sapiens (Human), UniProt Q04759)

>  <IC50>
3.16 to 10 nM

$$$$

## Task State the recorded IC50 for this entry: CC1(C)C(=O)Nc2nccc(-c3nn(C[C@]4(C)COCCN4)c4ccccc34)c21
## Result 10 to 31.6 nM

## Task State the recorded IC50 for this entry: CC[C@@]1(C)C(=O)Nc2nccc(-c3nn([C@@H]4CCNC[C@@H]4F)c4ccc(F)cc34)c21 (single isomer, unassigned)
## Result 1 to 3.16 nM

## Task State the recorded IC50 for this entry: C[C@@]1(O)C(=O)Nc2nccc(-c3nn(CC4CCNCC4)c4ccccc34)c21 (single isomer, unassigned)
## Result ≤ 1 nM

## Task State the recorded IC50 for this entry: CO[C@]1(C)C(=O)Nc2nccc(-c3nn([C@H]4CCNC[C@H]4F)c4ccccc34)c21 (single isomer, unassigned)
## Result 3.16 to 10 nM

## Task State the recorded IC50 for this entry: CC1(C)C(=O)Nc2nccc(-c3nn([C@H]4CCNC4)c4cc(C(F)(F)F)ccc34)c21
## Result 100 to 316 nM

## Task State the recorded IC50 for this entry: CC1(C)C(=O)Nc2nccc(-c3ccn(C4CCNCC4)n3)c21 [Example 8, Dihydrochloride]
## Result 3.16 to 10 nM

## Task State the recorded IC50 for this entry: CO[C@@]1(C)C(=O)Nc2nccc(-c3nn(CC4(F)CCNCC4)c4cc(F)ccc34)c21 (single isomer, unassigned)
## Result 1 to 3.16 nM
